experiment: Phase 1b MAD plasma pharmacokinetics, non-compartmental analysis; type: in vivo, human; conditions: human, plasma, po, 10 mg, Table 10: Cohort A, 10 mg QD oral, Day 7; mean ± S.D.; read-out: Cmax
reported_metric: Cmax
Field: value (include unit after the number)

[in] Reported Cmax, molecule CC1(Cc2ccccc2)COc2cc(C(=O)N3CCCCC3)ccc21 (stereo not shown) : ____
[out] 37.7 ng/mL

====

experiment: Phase 1b MAD plasma pharmacokinetics, non-compartmental analysis; format: in vivo, human; conditions: human, plasma, po, 360 mg SDD, Table 35 (interim): Cohort D (AD), 360 mg SDD (90 mg NTRX-07) QD oral, Day 7; individual subjects; read-out: Vd/F
reported_metric: Vd/F (L)
// units = L; emit number, no label

[in] Reported Vd/F, molecule CC1(Cc2ccccc2)COc2cc(C(=O)N3CCCCC3)ccc21 (stereo not shown) : ____
[out] 1260
